Source listed as the supplement of paper PMC5998384.

system: HeLa Kyoto; experiment: thermal stability score vs G1/S (z-score of summed log2 fold changes over temperatures); higher = more thermally stable than in G1/S; details: cell cycle stage: early G1 (4.5 h after nocodazole release);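 note: synchronized HeLa Kyoto cells, proteins quantified by TMT10plex mass spectrometry, three biological replicates, mitosis taken 0.5 h after nocodazole release, G1/S directly after double thymidine block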
Kindly state thermal stability score for each of the entries shown.

MMAAGAALALALWLLMPPVEVGGAGPPPIQDGEFTFLLPAGRKQCFYQSAPANASLETEYQVIGGAGLDVDFTLESPQGVLLVSESRKADGVHTVEPTEAGDYKLCFDNSFSTISEKLVFFELIFDSLQDDEEVEGWAEAVEPEEMLDVKMEDIKESIETMRTRLERSIQMLTLLRAFEARDRNLQEGNLERVNFWSAVNVAVLLLVAVLQVCTLKRFFQDKRPVPT [TMED1]    2.89

Now look at this one.
The reported value for MAEFPSKVSTRTSSPAQGAEASVSALRPDLGFVRSRLGALMLLQLVLGLLVWALIADTPYHLYPAYGWVMFVAVFLWLVTIVLFNLYLFQLHMKLYMVPWPLVLMIFNISATVLYITAFIACSAAVDLTSLRGTRPYNQRAAASFFACLVMIAYGVSAFFSYQAWRGVGSNAATSQMAGGYA [PLLP] in terms of thermal stability score is -2.71
